Values from paper PMC9804084

testMethodNotes: In vivo microdialysis pharmacokinetics of LVFX without transporter inhibitors
Set-up: species or system rat
condition: rat, blood, iv, 50 mg/kg, blood; Group 2: 1.25% NaHCO3 solution + LVFX 50 mg/kg; mean ± SD, n=3
quantityMeasured: Cmax (ng/mL)
Write it as a number; the unit ng/mL goes unstated.

The compound C[C@H]1COc2c(N3CCN(C)CC3)c(F)cc3c(=O)c(C(=O)O)cn1c23 showed Cmax equal to 10700

###

Test system: Multidrug resistance-associated proteins (MRPs)
testMethodNotes: In vivo microdialysis pharmacokinetics of LVFX with MRPs inhibitor MK571
Design: species or system rat
condition: rat, intravenous, with MK571 20 mg/kg i.p., 30 min before LVFX; blood; MK571 group, MK571 20 mg/kg i.p. + LVFX 50 mg/kg; mean ± SD, N=5; read-out: AUC0–180 (converted)
quantityMeasured: AUC(0-t) (ng·h/mL)
Write it as a number; the unit ng·h/mL goes unstated.

The value of AUC(0-t) recorded for C[C@H]1COc2c(N3CCN(C)CC3)c(F)cc3c(=O)c(C(=O)O)cn1c23 [LVFX, Levofloxacin] when tested on Multidrug resistance-associated proteins (MRPs) reads 11000

###

testMethodNotes: In vivo microdialysis pharmacokinetics of LVFX without transporter inhibitors
Set-up: species or system rat
condition: rat, blood, iv, 50 mg/kg, pH 9, blood; Group 3: physiological saline alkalinized with NaOH (pH 9.0–9.2) + LVFX 50 mg/kg; mean ± SD, n=3
quantityMeasured: Cmax (ng/mL)
Write it as a number; the unit ng/mL goes unstated.

The compound C[C@H]1COc2c(N3CCN(C)CC3)c(F)cc3c(=O)c(C(=O)O)cn1c23 showed Cmax equal to 9780

###

targetOrTestSystem: Breast cancer resistance protein (BCRP) (Rattus norvegicus, UniProt Q80W57)
Construct: from tissue; host or cells: living rat (blood-brain barrier, choroid plexus)
Sequence (Q80W57 whole entry): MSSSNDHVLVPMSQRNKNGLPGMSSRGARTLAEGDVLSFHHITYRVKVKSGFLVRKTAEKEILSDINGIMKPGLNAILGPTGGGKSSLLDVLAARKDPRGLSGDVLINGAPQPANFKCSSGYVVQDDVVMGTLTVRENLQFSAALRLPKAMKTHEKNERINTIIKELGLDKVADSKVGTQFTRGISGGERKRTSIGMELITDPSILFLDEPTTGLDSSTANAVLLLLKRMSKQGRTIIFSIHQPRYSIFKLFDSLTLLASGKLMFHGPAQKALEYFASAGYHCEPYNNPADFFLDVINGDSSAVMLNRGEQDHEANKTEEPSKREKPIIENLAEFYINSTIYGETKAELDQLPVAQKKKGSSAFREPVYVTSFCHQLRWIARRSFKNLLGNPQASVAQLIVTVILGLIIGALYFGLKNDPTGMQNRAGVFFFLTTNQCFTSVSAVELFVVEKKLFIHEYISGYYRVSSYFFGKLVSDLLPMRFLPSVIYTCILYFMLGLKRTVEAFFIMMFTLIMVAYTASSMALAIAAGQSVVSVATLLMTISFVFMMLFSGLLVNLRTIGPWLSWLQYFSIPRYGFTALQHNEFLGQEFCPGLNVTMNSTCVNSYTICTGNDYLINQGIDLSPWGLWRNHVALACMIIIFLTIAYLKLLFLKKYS
testMethodNotes: In vivo microdialysis pharmacokinetics of LVFX with BCRP inhibitor Ko143
condition: intravenous, with Ko143 15 mg/kg i.p., 30 min before LVFX, blood, Ko143 group, Ko143 15 mg/kg i.p. + LVFX 50 mg/kg, mean ± SD, N=5
quantityMeasured: half-life (min)
Write it as a number; the unit min goes unstated.

The compound C[C@H]1COc2c(N3CCN(C)CC3)c(F)cc3c(=O)c(C(=O)O)cn1c23 showed half-life equal to 42.8

###

Test system: Multidrug resistance-associated proteins (MRPs)
testMethodNotes: In vivo microdialysis pharmacokinetics of LVFX with MRPs inhibitor MK571
Design: species or system rat
condition: rat, intravenous, with MK571 20 mg/kg i.p., 30 min before LVFX; blood; MK571 group, MK571 20 mg/kg i.p. + LVFX 50 mg/kg; mean ± SD, N=5
quantityMeasured: Cmax (ng/mL)
Write it as a number; the unit ng/mL goes unstated.

The value of Cmax recorded for C[C@H]1COc2c(N3CCN(C)CC3)c(F)cc3c(=O)c(C(=O)O)cn1c23 when tested on Multidrug resistance-associated proteins (MRPs) reads 10100

###

Test system: Organic anion transporters (OATs)
testMethodNotes: In vivo microdialysis pharmacokinetics of LVFX with OATs inhibitor probenecid
Design: species or system rat
condition: rat, intravenous, with Probenecid 50 mg/kg i.p., 30 min before LVFX; blood; PRO group, Probenecid 50 mg/kg i.p. + LVFX 50 mg/kg; mean ± SD, N=5
Method: On the day of surgery, rats were anesthetized using inhaled isoflurane via a facemask. The rats were placed in a stereotaxic frame (Gene&I), and the body temperature was maintained with a homoeothermic blanket set at 37°C. A midline incision was made to expose the skull. […]
quantityMeasured: half-life (h)
Write it as a number; the unit h goes unstated.

The molecule C[C@H]1COc2c(N3CCN(C)CC3)c(F)cc3c(=O)c(C(=O)O)cn1c23 showed half-life equal to 1.05

###

System: P-glycoprotein (P-gp)
testMethodNotes: In vivo microdialysis pharmacokinetics of LVFX with P-gp inhibitor Tariquidar
Set-up: species or system rat
condition: rat, brain ECF (hippocampal microdialysate, unbound), intravenous, with Tariquidar 8 mg/kg i.p., 30 min before LVFX; brain ECF; TAR group, Tariquidar 8 mg/kg i.p. + LVFX 50 mg/kg; mean ± SD, N=5
quantityMeasured: half-life (min)
Write it as a number; the unit min goes unstated.

The molecule C[C@H]1COc2c(N3CCN(C)CC3)c(F)cc3c(=O)c(C(=O)O)cn1c23 showed half-life equal to 52.9

###

System: Organic anion transporters (OATs)
testMethodNotes: In vivo microdialysis pharmacokinetics of LVFX with OATs inhibitor probenecid
Set-up: species or system rat
condition: rat, CSF (lateral ventricle microdialysate, unbound), intravenous, with Probenecid 50 mg/kg i.p.; CSF; PRO group, Probenecid 50 mg/kg i.p. + LVFX 50 mg/kg; mean ± SD, N=5; read-out: AUC0–180 (converted)
quantityMeasured: AUC(0-t) (ng·h/mL)
Write it as a number; the unit ng·h/mL goes unstated.

The molecule C[C@H]1COc2c(N3CCN(C)CC3)c(F)cc3c(=O)c(C(=O)O)cn1c23 showed AUC(0-t) equal to 8330

###

testMethodNotes: In vivo microdialysis pharmacokinetics of LVFX without transporter inhibitors
Set-up: species or system rat
condition: rat, blood (microdialysate, unbound), iv, 50 mg/kg, pH 9, blood; Group 3: physiological saline alkalinized with NaOH (pH 9.0–9.2) + LVFX 50 mg/kg; mean ± SD, n=3
quantityMeasured: MRT (h)
Write it as a number; the unit h goes unstated.

The compound C[C@H]1COc2c(N3CCN(C)CC3)c(F)cc3c(=O)c(C(=O)O)cn1c23 [LVFX, Levofloxacin] showed MRT equal to 1.16

###

testMethodNotes: In vivo microdialysis pharmacokinetics of LVFX without transporter inhibitors
Parameters: species or system rat
condition: rat, brain ECF, iv, 50 mg/kg, brain ECF; Group 2: 1.25% NaHCO3 solution + LVFX 50 mg/kg; mean ± SD, n=3
Description: On the day of surgery, rats were anesthetized using inhaled isoflurane via a facemask. The rats were placed in a stereotaxic frame (Gene&I), and the body temperature was maintained with a homoeothermic blanket set at 37°C. A midline incision was made to expose the skull. […]
quantityMeasured: AUC(0-inf) (ng·h/mL)
Write it as a number; the unit ng·h/mL goes unstated.

The compound C[C@H]1COc2c(N3CCN(C)CC3)c(F)cc3c(=O)c(C(=O)O)cn1c23 [LVFX, Levofloxacin] showed AUC(0-inf) equal to 3600

###

targetOrTestSystem: Breast cancer resistance protein (BCRP) (Rattus norvegicus)
Construct: from tissue; host or cells: living rat (blood-brain barrier, choroid plexus)
testMethodNotes: In vivo microdialysis pharmacokinetics of LVFX with BCRP inhibitor Ko143
condition: brain ECF (hippocampal microdialysate, unbound), intravenous, with Ko143 15 mg/kg i.p., 30 min before LVFX, brain ECF, Ko143 group, Ko143 15 mg/kg i.p. + LVFX 50 mg/kg, N=5
quantityMeasured: Tmax (min)
Write it as a number; the unit min goes unstated.

The compound C[C@H]1COc2c(N3CCN(C)CC3)c(F)cc3c(=O)c(C(=O)O)cn1c23 showed Tmax equal to 15

###

testMethodNotes: In vivo microdialysis pharmacokinetics of LVFX without transporter inhibitors
Set-up: species or system rat
condition: rat, CSF (lateral ventricle microdialysate), iv, 50 mg/kg, CSF; Group 2: 1.25% NaHCO3 solution + LVFX 50 mg/kg; mean ± SD, n=3
quantityMeasured: AUC(0-inf) (ng·h/mL)
Write it as a number; the unit ng·h/mL goes unstated.

The compound C[C@H]1COc2c(N3CCN(C)CC3)c(F)cc3c(=O)c(C(=O)O)cn1c23 showed AUC(0-inf) equal to 4490

###

testMethodNotes: In vivo microdialysis pharmacokinetics of LVFX without transporter inhibitors
Set-up: species or system rat
condition: rat, hippocampal brain ECF (microdialysate, unbound), iv, 50 mg/kg, hippocampal brain ECF; control group, vehicle + LVFX 50 mg/kg tail vein; mean ± SD, N=12
quantityMeasured: AUC(0-inf) (ng·h/mL)
Write it as a number; the unit ng·h/mL goes unstated.

The compound C[C@H]1COc2c(N3CCN(C)CC3)c(F)cc3c(=O)c(C(=O)O)cn1c23 showed AUC(0-inf) equal to 3770

###

testMethodNotes: In vivo microdialysis pharmacokinetics of LVFX without transporter inhibitors
Parameters: species or system rat
condition: rat, brain ECF, iv, 50 mg/kg, pH 9, brain ECF; Group 3: physiological saline alkalinized with NaOH (pH 9.0–9.2) + LVFX 50 mg/kg; mean ± SD, n=3; read-out: AUC0–180 (converted)
Experimental: On the day of surgery, rats were anesthetized using inhaled isoflurane via a facemask. The rats were placed in a stereotaxic frame (Gene&I), and the body temperature was maintained with a homoeothermic blanket set at 37°C. A midline incision was made to expose the skull. […]
quantityMeasured: AUC(0-t) (ng·h/mL)
Write it as a number; the unit ng·h/mL goes unstated.

The compound C[C@H]1COc2c(N3CCN(C)CC3)c(F)cc3c(=O)c(C(=O)O)cn1c23 showed AUC(0-t) equal to 3470
